Tested on: HeLa
Test: Cytotoxicity against human HeLa cells
Assay type: functional, cell-based
Conditions: Homo sapiens, HeLa
quantity-kind: IC50 (µM)
Your answer should be a plain number; it is taken to be in µM.

Any idea what its IC50 is? The compound is `N=c1c2c(=S)n(-c3ccccc3)c(=S)n(-c3ccccc3)c2nc(NCCN2CCCCC2)n1-c1ccccc1`
5.2

Any idea what its IC50 is? The compound is `O=C1NC(=S)NC(=O)C1C(=O)Nc1ccccc1`
43.8

Any idea what its IC50 is? The compound is `N=c1c2c(=S)n(-c3ccccc3)c(=S)n(-c3ccccc3)c2nc(NCc2cccnc2)n1-c1ccccc1`
14.6

Any idea what its IC50 is? The compound is `CN1CCN(CCCNc2nc3c(c(=N)n2-c2ccccc2)c(=S)n(-c2ccccc2)c(=S)n3-c2ccccc2)CC1`
8.5

Any idea what its IC50 is? The compound is `N=c1c2c(=S)n(-c3ccccc3)c(=S)n(-c3ccccc3)c2nc(NCCc2ccncc2)n1-c1ccccc1`
15.4

Any idea what its IC50 is? The compound is `CN(C)CCCNc1nc2c(c(=N)n1-c1ccccc1)c(=S)n(-c1ccccc1)c(=S)n2-c1ccccc1`
7.8

* * *

Test system: HeLa
Test: Cytotoxicity against human HeLa cells
Assay type: functional, cell-based
Settings: Homo sapiens, HeLa
Decide using IC50 alone. Strictly below 10 µM: true. Equal to or above 10 µM: false.

is_below(IC50, 10 µM) for `CCCCN(CCCC)CCCNc1nc2c(c(=N)n1-c1ccccc1)c(=S)n(-c1ccccc1)c(=S)n2-c1ccccc1` ?
true

is_below(IC50, 10 µM) for `N=c1c2c(=S)n(-c3ccccc3)c(=S)n(-c3ccccc3)c2nc(NCc2ccccn2)n1-c1ccccc1` ?
false

is_below(IC50, 10 µM) for `CN(C)CCNc1nc2c(c(=N)n1-c1ccccc1)c(=S)n(-c1ccccc1)c(=S)n2-c1ccccc1` ?
false

is_below(IC50, 10 µM) for `N=c1c2c(=S)n(-c3ccccc3)c(=S)n(-c3ccccc3)c2nc(NCCc2ccc(Cl)cc2)n1-c1ccccc1` ?
true

is_below(IC50, 10 µM) for `CCN(CC)CCNc1nc2c(c(=N)n1-c1ccccc1)c(=S)n(-c1ccccc1)c(=S)n2-c1ccccc1` ?
false

is_below(IC50, 10 µM) for `N=c1c2c(=S)n(-c3ccccc3)c(=S)n(-c3ccccc3)c2nc(NCCc2ccccn2)n1-c1ccccc1` ?
false

* * *

Test system: MT4
Test: Cytotoxicity against human MT4 cells
Format: functional, cell-based
quantity-kind: IC50 (µM)
Your answer should be a plain number; it is taken to be in µM.

Any idea what its IC50 is? The compound is O=C1NC(=S)NC(=O)C1C(=O)Nc1ccccc1 [MERBARONE]
12

Any idea what its IC50 is? The compound is `CCN(CC)CCSc1nc2c(c(=N)n1-c1ccccc1)c(=S)n(-c1ccccc1)c(=S)n2-c1ccccc1`
3.3

Any idea what its IC50 is? The compound is `N=c1c2c(=S)n(-c3ccccc3)c(=S)n(-c3ccccc3)c2nc(NCCc2ccc(Cl)cc2)n1-c1ccccc1`
2.4

Any idea what its IC50 is? The compound is `N=c1c2c(=S)n(-c3ccccc3)c(=S)n(-c3ccccc3)c2nc(NCc2ccccn2)n1-c1ccccc1`
7

Any idea what its IC50 is? The compound is `CN(C)CCCNc1nc2c(c(=N)n1-c1ccccc1)c(=S)n(-c1ccccc1)c(=S)n2-c1ccccc1`
1.7

Any idea what its IC50 is? The compound is `N=c1c2c(=S)n(-c3ccccc3)c(=S)n(-c3ccccc3)c2nc(NCCc2ccccn2)n1-c1ccccc1`
8

Any idea what its IC50 is? The compound is `N=c1c2c(=S)n(-c3ccccc3)c(=S)n(-c3ccccc3)c2nc(NCCc2ccncc2)n1-c1ccccc1`
16

Any idea what its IC50 is? The compound is `CCN(CC)CCNc1nc2c(c(=N)n1-c1ccccc1)c(=S)n(-c1ccccc1)c(=S)n2-c1ccccc1`
2.5

* * *

Please respond with reported IC50 for every item in the list.
Target: DNA topoisomerase 2-alpha (Homo sapiens, UniProt P11388)
Sequence (P11388 whole entry): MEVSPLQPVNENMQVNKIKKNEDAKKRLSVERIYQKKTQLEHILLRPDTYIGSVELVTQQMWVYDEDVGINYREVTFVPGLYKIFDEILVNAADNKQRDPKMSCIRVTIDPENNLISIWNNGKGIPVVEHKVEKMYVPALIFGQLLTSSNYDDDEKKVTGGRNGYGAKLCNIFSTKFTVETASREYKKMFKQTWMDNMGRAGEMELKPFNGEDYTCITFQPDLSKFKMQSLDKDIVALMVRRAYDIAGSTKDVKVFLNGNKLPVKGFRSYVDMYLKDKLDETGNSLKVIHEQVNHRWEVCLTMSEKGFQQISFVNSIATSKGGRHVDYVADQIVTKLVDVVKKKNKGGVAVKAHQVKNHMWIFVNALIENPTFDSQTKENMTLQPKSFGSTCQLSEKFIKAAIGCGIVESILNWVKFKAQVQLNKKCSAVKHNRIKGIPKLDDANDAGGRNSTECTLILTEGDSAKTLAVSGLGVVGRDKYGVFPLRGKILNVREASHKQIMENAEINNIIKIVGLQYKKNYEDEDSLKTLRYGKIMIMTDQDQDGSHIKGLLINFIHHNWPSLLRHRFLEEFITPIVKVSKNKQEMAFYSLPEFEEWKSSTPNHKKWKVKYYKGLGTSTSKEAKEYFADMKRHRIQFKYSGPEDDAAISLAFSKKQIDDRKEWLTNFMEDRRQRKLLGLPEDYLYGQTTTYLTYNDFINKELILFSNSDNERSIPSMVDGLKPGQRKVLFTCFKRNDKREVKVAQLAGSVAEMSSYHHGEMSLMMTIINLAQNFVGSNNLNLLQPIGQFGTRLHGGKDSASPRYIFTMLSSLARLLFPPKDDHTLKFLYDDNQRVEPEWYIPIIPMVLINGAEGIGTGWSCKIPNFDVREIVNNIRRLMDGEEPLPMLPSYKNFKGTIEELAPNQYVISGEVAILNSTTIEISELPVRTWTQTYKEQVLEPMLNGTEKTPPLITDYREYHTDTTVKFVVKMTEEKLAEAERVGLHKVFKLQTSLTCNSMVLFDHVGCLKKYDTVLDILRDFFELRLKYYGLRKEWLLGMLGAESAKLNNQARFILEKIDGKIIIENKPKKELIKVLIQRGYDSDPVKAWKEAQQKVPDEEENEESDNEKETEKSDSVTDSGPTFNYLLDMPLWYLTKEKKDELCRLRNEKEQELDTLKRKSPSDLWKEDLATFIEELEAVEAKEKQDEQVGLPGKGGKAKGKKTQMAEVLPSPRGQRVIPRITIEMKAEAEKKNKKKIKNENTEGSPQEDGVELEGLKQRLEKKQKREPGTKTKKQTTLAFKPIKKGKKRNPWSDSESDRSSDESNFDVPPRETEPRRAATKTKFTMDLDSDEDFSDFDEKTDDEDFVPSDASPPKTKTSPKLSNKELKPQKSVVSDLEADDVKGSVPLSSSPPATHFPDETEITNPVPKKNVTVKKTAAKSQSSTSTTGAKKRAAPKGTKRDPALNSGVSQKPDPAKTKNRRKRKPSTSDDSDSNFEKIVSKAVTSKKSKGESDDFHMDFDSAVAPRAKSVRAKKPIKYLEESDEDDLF
Your answer should be a plain number; it is taken to be in µM.

Any idea what its IC50 is? The molecule is `O=C1NC(=S)NC(=O)C1C(=O)Nc1ccccc1`
32

Any idea what its IC50 is? The molecule is `N=c1c2c(=S)n(-c3ccccc3)c(=S)n(-c3ccccc3)c2nc(NCCN2CCCCC2)n1-c1ccccc1`
3

* * *

Please respond with reported IC50 for every item in the list.
Tested on: MT4
Assay: Cytotoxicity against human MT4 cells
Format: functional, cell-based
Your answer should be a plain number; it is taken to be in µM.

MT4 / IC50 / `N=c1c2c(=S)n(-c3ccccc3)c(=S)n(-c3ccccc3)c2nc(NCCCn2ccnc2)n1-c1ccccc1` : value?
8

MT4 / IC50 / `CN(C)CCNc1nc2c(c(=N)n1-c1ccccc1)c(=S)n(-c1ccccc1)c(=S)n2-c1ccccc1` : value?
8.4

MT4 / IC50 / `CCCCN(CCCC)CCCNc1nc2c(c(=N)n1-c1ccccc1)c(=S)n(-c1ccccc1)c(=S)n2-c1ccccc1` : value?
1.6

MT4 / IC50 / `N=c1c2c(=S)n(-c3ccccc3)c(=S)n(-c3ccccc3)c2nc(SCCN2CCCCC2)n1-c1ccccc1` : value?
3.6

MT4 / IC50 / `N=c1c2c(=S)n(-c3ccccc3)c(=S)n(-c3ccccc3)c2nc(NCCN2CCCCC2)n1-c1ccccc1` : value?
1.7

MT4 / IC50 / `CN1CCN(CCCNc2nc3c(c(=N)n2-c2ccccc2)c(=S)n(-c2ccccc2)c(=S)n3-c2ccccc2)CC1` : value?
2

* * *

quantity-kind: IC50

DNA topoisomerase 2-alpha (Homo sapiens, UniProt P11388) / IC50 / `CN(C)CCNc1nc2c(c(=N)n1-c1ccccc1)c(=S)n(-c1ccccc1)c(=S)n2-c1ccccc1` : value?
> 100 µM

DNA topoisomerase 2-alpha (Homo sapiens, UniProt P11388) / IC50 / `N=c1c2c(=S)n(-c3ccccc3)c(=S)n(-c3ccccc3)c2nc(NCc2ccccn2)n1-c1ccccc1` : value?
> 100 µM

DNA topoisomerase 2-alpha (Homo sapiens, UniProt P11388) / IC50 / `CCCCN(CCCC)CCCNc1nc2c(c(=N)n1-c1ccccc1)c(=S)n(-c1ccccc1)c(=S)n2-c1ccccc1` : value?
> 32 µM

DNA topoisomerase 2-alpha (Homo sapiens, UniProt P11388) / IC50 / `N=c1c2c(=S)n(-c3ccccc3)c(=S)n(-c3ccccc3)c2nc(NCCc2ccccn2)n1-c1ccccc1` : value?
> 100 µM

* * *

Test system: MT4
Assay: Cytotoxicity against human MT4 cells
Type: functional, cell-based
pIC50: −log10 of the molar value.
quantity-kind: pIC50

MT4 / pIC50 / `N=c1c2c(=S)n(-c3ccccc3)c(=S)n(-c3ccccc3)c2nc(NNc2ccccc2)n1-c1ccccc1` : value?
< 4.00

MT4 / pIC50 / `CN1CCN(c2nc3c(c(=N)n2-c2ccccc2)c(=S)n(-c2ccccc2)c(=S)n3-c2ccccc2)CC1` : value?
< 4.00

MT4 / pIC50 / `N=c1c2c(=S)n(-c3ccccc3)c(=S)n(-c3ccccc3)c2nc(NCc2cccnc2)n1-c1ccccc1` : value?
< 4.00

Taken from ChEMBL document CHEMBL2440027.
